Data provenance is patent US20230365679A1.

Molecular target: T1, Biotinylated Human Siglec-2/CD22 Protein, Fc, Avitag (ACROBiosystems, SI2-H82F8) (human, UniProt P20273 20-687, biotinylated (Avitag))
T1 construct: Bought reagent; also called CD22 antigen; CD22-Fc-biotinylated antigen; not shown: Fc tag of the bought protein; Avitag
Experiment: ELISA, plate coated with CD22-Fc antigen, anti-human Fd-HRP
reportedProperty: EC50

- mAb-5 (antibody, human IgG1, kappa, V domains shown, Humanized IgG1/kappa antibody; also called V5 HC + V4 LC) VH: EVQLVESGGGLVKPGGSLRLSCAASGFAFSIYDMSWIRQAPGKCLEWVAYISSGGGTTYYPGSVKGRFTISRENAKNSLYLQMNSLRSEDTAVYYCARHSGYGTHWGVLFAYWGQGTMVTVSS VL: DIQMTQSPSTLSASVGDRVTITCRASQDISNYLNWFQQRPGQSPRLLIYYTSILHSGVPSRFSGSGSGTDYTLTISSLQPEDFATYYCQQGNTLPWTFGCGTKVEIKR: 0.0163 µg/mL
- mAb-1 (antibody, human IgG1, kappa, V domains shown, Reconstructed IgG1/kappa antibody, humanized heavy chain with HA22 light chain; also called V2 HC + HA22 LC) VH: EVQLVESGGGLVKPGGSLRLSCAASGFAFSIYDMSWVRQTPEKCLEWVAYISSGGGTTYYPDSVKGRFTISRENAKNSLYLQMNSLKSEDTAMYYCARHSGYGTHWGVLFAYWGQGTMVTVSS VL: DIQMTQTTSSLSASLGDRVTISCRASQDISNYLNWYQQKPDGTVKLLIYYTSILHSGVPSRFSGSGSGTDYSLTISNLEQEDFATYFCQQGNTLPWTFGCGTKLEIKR: 0.0154 µg/mL
- mAb-3 (antibody, human IgG1, kappa, V domains shown, Humanized IgG1/kappa antibody; also called V1 HC + V2 LC) VH: EVQLVESGGGLVKPGGSLRLSCAASGFAFSIYDMSWVRQAPGKCLEWVAYISSGGGTTYYPDSVKGRFTISRENAKNSLYLQMNSLKSEDTAMYYCARHSGYGTHWGVLFAYWGQGTMVTVSS VL: DIQMTQSTSTLSASVGDRVTITCRASQDISNYLNWYQQRPDGSVKLLIYYTSILHSGVPSRFSGSGSGTDYTLTISSLQDEDFATYFCQQGNTLPWTFGCGTKVEIKR: 0.0139 µg/mL
- mAb-4 (antibody, human IgG1, kappa, V domains shown, Humanized IgG1/kappa antibody; also called V1 HC + V4 LC) VH: EVQLVESGGGLVKPGGSLRLSCAASGFAFSIYDMSWVRQAPGKCLEWVAYISSGGGTTYYPDSVKGRFTISRENAKNSLYLQMNSLKSEDTAMYYCARHSGYGTHWGVLFAYWGQGTMVTVSS VL: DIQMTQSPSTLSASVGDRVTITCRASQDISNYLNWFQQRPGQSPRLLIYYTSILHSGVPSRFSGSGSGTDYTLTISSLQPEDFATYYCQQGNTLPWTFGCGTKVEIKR: 0.0139 µg/mL
- HA22 mAb (antibody, human IgG1, kappa, V domains shown, also called positive antibody HA22 mAb) VH: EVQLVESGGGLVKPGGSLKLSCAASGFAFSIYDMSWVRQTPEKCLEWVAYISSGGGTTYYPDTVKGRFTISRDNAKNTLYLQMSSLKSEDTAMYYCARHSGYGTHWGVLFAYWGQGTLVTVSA VL: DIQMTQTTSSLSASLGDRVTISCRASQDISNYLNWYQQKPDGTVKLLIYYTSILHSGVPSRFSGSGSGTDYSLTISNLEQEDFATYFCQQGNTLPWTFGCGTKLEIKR: 0.0203 µg/mL
- mAb-2 (antibody, human IgG1, kappa, V domains shown, Humanized IgG1/kappa antibody; also called V2 HC + V2 LC) VH: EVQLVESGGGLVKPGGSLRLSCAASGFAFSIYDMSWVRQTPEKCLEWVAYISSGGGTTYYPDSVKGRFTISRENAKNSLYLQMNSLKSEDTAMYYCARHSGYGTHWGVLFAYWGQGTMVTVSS VL: DIQMTQSTSTLSASVGDRVTITCRASQDISNYLNWYQQRPDGSVKLLIYYTSILHSGVPSRFSGSGSGTDYTLTISSLQDEDFATYFCQQGNTLPWTFGCGTKVEIKR: 0.00906 µg/mL
- mAb-6 (antibody, human IgG1, kappa, V domains shown, Humanized IgG1/kappa antibody; also called V4 HC + V4 LC) VH: EVQLVESGGGLVKPGGSLRLSCAASGFAFSIYDMSWIRQAPGKCLEWVAYISSGGGTTYYPGSVKGRFTISRENAKNSLYLQMNSLRAGDTAVYYCARHSGYGTHWGVLFAYWGQGTMVTVSS VL: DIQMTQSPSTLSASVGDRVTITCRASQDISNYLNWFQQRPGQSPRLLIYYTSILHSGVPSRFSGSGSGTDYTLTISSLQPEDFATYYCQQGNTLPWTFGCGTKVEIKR: 0.0104 µg/mL
